Please respond with reported growth for every item in the list.
Test system: E. coli TESEC Mtb Alr
Experiment notes: growth (OD600 after 10 h); higher = more growth (less inhibition)
Protocol conditions: arabinose 10000000 nM; compound 0.1 mM; raw OD600 reference: median of DMSO wells 0.146, cell-free background 0.041
Structures can show the parent of a compound that is named as a salt.
One number for each entry.

Below is a list of compounds. For each, state its recorded growth.
1. Cc1cc(CC(=O)O)n(C)c1C(=O)c1ccc(Cl)cc1 [Zomepirac sodium salt]
2. O=C(Cn1ccnc1[N+](=O)[O-])NCCO
3. CNCCC(Oc1ccc(C(F)(F)F)cc1)c1ccccc1 (centres undefined) [Fluoxetine hydrochloride]
4. NC(=O)c1ncn([C@@H]2O[C@H](CO)[C@@H](O)[C@H]2O)n1
5. CCCCC1=NC2(CCCC2)C(=O)N1Cc1ccc(-c2ccccc2-c2nnn[nH]2)cc1
6. CC(C)(C)C(=O)OCOC(=O)[C@@H]1N2C(=O)[C@@H](/N=C/N3CCCCCC3)[C@H]2SC1(C)C [Pivmecillinam hydrochloride]

0.121
0.138
0.0554
0.106
0.13
0.191

Below is a list of compounds. For each, state its recorded growth.
1. Cc1c(O)c(=O)n(-c2ccccc2)n1C [Antipyrine, 4-hydroxy]
2. COC(=O)[C@H](c1ccccc1Cl)N1CCc2sccc2C1
3. NCCc1ccc(O)c(O)c1 [Dopamine hydrochloride]

0.154
0.0663
0.144

----------
System: E. coli TESEC Mtb Alr
Experiment notes: growth (OD600 after 10 h); higher = more growth (less inhibition)
Protocol conditions: arabinose 100000 nM; compound 0.1 mM; raw OD600 reference: median of DMSO wells 0.201, cell-free background 0.041
Structures can show the parent of a compound that is named as a salt.
Please respond with reported growth for every item in the list.
One number for each entry.

The examples below pair each entry with its known result.
Which growth value is on record for CN1CCC(=C2c3ccccc3C=Cc3ccccc32)CC1 [Cyproheptadine hydrochloride] ?
0.12

Which growth value is on record for C[C@]12CC[C@@H]3c4ccc(O)cc4CC[C@H]3[C@@H]1CCC2=O [Estrone] ?
0.187

Which growth value is on record for CCOC(=O)OC(C)OC(=O)[C@@H]1N2C(=O)[C@@H](NC(=O)[C@H](N)c3ccccc3)[C@H]2SC1(C)C (stereo partly drawn) [Bacampicillin hydrochloride] ?
0.356

Which growth value is on record for CC[C@@H](CO)NCCN[C@@H](CC)CO [Ethambutol dihydrochloride] ?
0.216

Which growth value is on record for CN(C)CCCN1c2ccccc2Sc2ccc(C(F)(F)F)cc21 [Triflupromazine hydrochloride] ?
0.0407

Which growth value is on record for CN(C)c1nc(N(C)C)nc(N(C)C)n1 [Altretamine] ?
0.209

Below is a list of compounds. For each, state its recorded growth.
1. CC(CNC1CCCCC1)OC(=O)c1ccccc1 (stereo not drawn) [Hexylcaine hydrochloride]
2. Clc1ccccc1CN1CCc2sccc2C1 [Ticlopidine hydrochloride]

[0.191, 0.0705]

----------
Please respond with reported growth for every item in the list.
Test system: E. coli TESEC Alr+ wild-type control
Experiment notes: growth (OD600 after 10 h); higher = more growth (less inhibition)
Protocol conditions: compound 0.1 mM; raw OD600 reference: median of DMSO wells 0.241, cell-free background 0.041
Structures can show the parent of a compound that is named as a salt.
Numbers only.

The examples below pair each entry with its known result.
Which growth value is on record for C=CCOC(Cn1ccnc1)c1ccc(Cl)cc1Cl (centres undefined) [Enilconazole] ?
0.0491

Which growth value is on record for CCn1cc(C(=O)O)c(=O)c2cc(F)c(N3CCN(C)CC3)cc21 [Pefloxacine] ?
0.0478

Which growth value is on record for CC1(C)O[C@@H]2C[C@H]3[C@@H]4C[C@H](F)C5=CC(=O)CC[C@]5(C)[C@H]4[C@@H](O)C[C@]3(C)[C@]2(C(=O)CO)O1 [Flurandrenolide] ?
0.223

Which growth value is on record for CC[C@@]1(O)C(=O)OCc2c1cc1n(c2=O)Cc2cc3c(CN(C)C)c(O)ccc3nc2-1 [Topotecan] ?
0.235

Which growth value is on record for CN1CCCN=C1/C=C/c1cccc(O)c1 [Oxantel pamoate] ?
0.216

Below is a list of molecules. For each, state its recorded growth.
1. Cc1cc(C(C)(C)C)cc(C)c1CC1=NCCN1 [Xylometazoline hydrochloride]
2. CCC(C)(CN(C)C)OC(=O)c1ccccc1 (centres undefined) [Amyleine hydrochloride]
3. C[C@]12CC[C@@H]3c4ccc(OS(=O)(=O)O)cc4CC[C@H]3[C@@H]1CCC2=O [Estropipate]
4. CN1CCN2c3ncccc3Cc3ccccc3C2C1 (centres undefined) [Mirtazapine]
5. Oc1ccc(C2CNCCc3c2cc(O)c(O)c3Cl)cc1 (centres undefined) [Fenoldopam]

0.226
0.233
0.229
0.217
0.0924

----------
Tested on: E. coli TESEC Alr+ wild-type control
Experiment notes: growth (OD600 after 10 h); higher = more growth (less inhibition)
Protocol conditions: compound 0.1 mM; raw OD600 reference: median of DMSO wells 0.49, cell-free background 0.052
Counter-ions that a name gives are not always drawn.
Category key, based on recorded growth: lowest = under 0.09, middle = from 0.09 up to 0.5, highest = 0.5 and over

Study these solved cases before continuing.
Looking at COc1ccc(CN(CCN(C)C)c2ccccn2)cc1 [Pyrilamine maleate] , which class would you pick?
highest

Looking at CN1CCN(CCCN2c3ccccc3Sc3ccc(C(F)(F)F)cc32)CC1 [Trifluoperazine dihydrochloride] , which class would you pick?
lowest

Next:
Looking at CCn1nc(C(=O)O)c(=O)c2cc3c(cc21)OCO3 [Cinoxacin] , which class would you pick?
lowest

Looking at CCOC(=O)[N-]c1c[n+](N2CCOCC2)no1 [Molsidomine] , which class would you pick?
highest

Looking at O=C(O)c1cc(/N=N/c2ccc(S(=O)(=O)Nc3ccccn3)cc2)ccc1O [Sulfasalazine] , which class would you pick?
middle

Looking at O=C(O)CCC(=O)c1ccc(-c2ccccc2)cc1 [Fenbufen] , which class would you pick?
middle

Looking at N=C(N)NC(=N)NCCc1ccccc1 [Phenformin hydrochloride] , which class would you pick?
middle

Looking at CCCCCCCCNC(C)C(O)c1ccc(SC(C)C)cc1 (centres undefined) [Suloctidil] , which class would you pick?
lowest

----------
System: E. coli TESEC Mtb Alr
Experiment notes: growth (OD600 after 10 h); higher = more growth (less inhibition)
Protocol conditions: arabinose 100000 nM; compound 0.1 mM; raw OD600 reference: median of DMSO wells 0.201, cell-free background 0.041
Structures can show the parent of a compound that is named as a salt.
Assign yes (1) whenever growth does not fall below 0.2; assign no (0) whenever it does.

Decide: growth of CCn1cc(C(=O)O)c(=O)c2cc(F)c(N3CCNCC3)nc21 [Enoxacin] >= 0.2?
no (0)

Decide: growth of O=C(O)CN(CCN(CC(=O)O)CC(=O)O)CCN(CC(=O)O)CC(=O)O [Pentetic acid] >= 0.2?
no (0)

Decide: growth of COc1ccccc1OCC(O)CN1CCN(CC(=O)Nc2c(C)cccc2C)CC1 (configuration not stated) [Ranolazine] >= 0.2?
no (0)

Decide: growth of Nc1ccc(/N=N/c2ccccc2)c(N)n1 [Phenazopyridine hydrochloride] >= 0.2?
no (0)

Decide: growth of NC[C@H]1O[C@H](O[C@H]2[C@H](O)[C@@H](O[C@H]3O[C@H](CO)[C@@H](O)[C@H](N)[C@H]3O)[C@H](N)C[C@@H]2N)[C@H](N)C[C@@H]1O [Tobramycin] >= 0.2?
no (0)

----------
Please respond with reported growth for every item in the list.
Test system: E. coli TESEC Mtb Alr
Experiment notes: growth (OD600 after 10 h); higher = more growth (less inhibition)
Protocol conditions: arabinose 10000000 nM; compound 0.1 mM; raw OD600 reference: median of DMSO wells […], cell-free background 0.052
Give bare numbers.

Which growth value is on record for CC1(C)O[C@@H]2C[C@H]3[C@@H]4C[C@H](F)C5=CC(=O)C=C[C@]5(C)[C@@]4(F)[C@@H](O)C[C@]3(C)[C@]2(C(=O)CO)O1 [Fluocinolone acetonide] ?
0.274

Which growth value is on record for OCCOCCN1CCN(C2=Nc3ccccc3Sc3ccccc32)CC1 [Quetiapine hemifumarate] ?
0.289

Which growth value is on record for O=C(NCCO[N+](=O)[O-])c1cccnc1 ?
0.333

Then there is this molecule:
Which growth value is on record for O=C1NCN(c2ccccc2)C12CCN(CCCC(c1ccc(F)cc1)c1ccc(F)cc1)CC2 ?
0.0605

----------
Test system: E. coli TESEC Mtb Alr
Experiment notes: growth (OD600 after 10 h); higher = more growth (less inhibition)
Protocol conditions: arabinose 10000 nM; compound 0.1 mM; raw OD600 reference: median of DMSO wells 0.264, cell-free background 0.041
Counter-ions that a name gives are not always drawn.
Please respond with reported growth for every item in the list.
Numbers only.

Below is a list of molecules. For each, state its recorded growth.
1. CCN1CCN(C(=O)N[C@@H](C(=O)N[C@@H]2C(=O)N3C(C(=O)O)=C(CSc4nnnn4C)CS[C@H]23)c2ccc(O)cc2)C(=O)C1=O [Cefoperazone dihydrate]
2. CSc1nc2cc(Cl)c(Oc3cccc(Cl)c3Cl)cc2[nH]1
3. CC(C)C[C@H](NC(=O)[C@@H](O)[C@H](N)Cc1ccccc1)C(=O)O
4. Cc1c(-c2ccccc2)oc2c(C(=O)OCCN3CCCCC3)cccc2c1=O [Flavoxate hydrochloride]

[0.221, 0.0802, 0.234, 0.248]
